- Test system: Hepatotoxicity
- assay.protocol: FDA HLAED, gamma-glutamyl transferase (GGT) increase
- protocol.conditions: human
measured.property: GGT Increase - Number of Reports

Known results for compounds:
compound | GGT Increase - Number of Reports
Clc1ccc(COC(Cn2ccnc2)c2ccc(Cl)cc2Cl)cc1 (configuration not stated) | < 4
CC(c1cc2ccccc2s1)N(O)C(N)=O (configuration not stated) | < 4
Cc1nc2n(c(=O)c1CCN1CCC(c3noc4cc(F)ccc34)CC1)CCCC2 | >= 4
Nc1ccn(C[C@@H](CO)OCP(=O)(O)O)c(=O)n1.O.O | < 4

Quick check: GGT Increase - Number of Reports of Clc1ccc2c(c1)C(N1CCNCC1)=Nc1ccccc1O2 ? < 4

Name the reported GGT Increase - Number of Reports value associated with the compound Clc1ccc(CSC(Cn2ccnc2)c2ccc(Cl)cc2Cl)cc1 (configuration not stated) < 4

Endpoint output: GGT Increase - Number of Reports of Cc1cn([C@H]2C=C[C@@H](CO)O2)c(=O)[nH]c1=O . Value? >= 4

Please report the recorded GGT Increase - Number of Reports for C[C@@H](CN1CC(=O)NC(=O)C1)N1CC(=O)NC(=O)C1 . < 4

Need GGT Increase - Number of Reports of C=C1c2c(Cl)ccc(O)c2C(=O)C2=C(O)[C@]3(O)C(=O)C(C(N)=O)=C(O)[C@@H](N(C)C)[C@@H]3[C@@H](O)[C@H]12 , thanks. < 4

If you can, please state the reported GGT Increase - Number of Reports value of CC(O)(CS(=O)(=O)c1ccc(F)cc1)C(=O)Nc1ccc(C#N)c(C(F)(F)F)c1 (configuration not stated) [BICALUTAMIDE] . < 4
